Cited source for all entries: the nanobody polyreactivity screen of Harvey et al. (2022)

assay-info: yeast display, Sf9 membrane polyspecificity reagent, FACS + sequencing; frameworks hold sequencing errors
measurement-name: polyreactivity (PSR sort gate)

Look over these answered cases.
QVQLVESWGGLVQAGGSLRLSCAASGLIFNYYAMGWYRQAPGKERELVAAITTGGGTYYADSVKGRFTISRDNAKNTVYLQMNSLKPEDTAVYYCAAVWGNRSRYPGHYYWGQGTQVTVSS: high polyreactivity
QVQLVESGGGLVQAGGSLRLSCAASGITIYAYAMGWSRQAPGKERELVAAINWSGGRTFYADSVKGRFTISRDNAKNTDYLQMNSLKPEDTAVYYCAAAYTRSYSWARGYDYWGQGTQVTVSS: high polyreactivity
QVQLVESGGGLVQAGGSLRLSCAATGITFIVYVMGWYRQAPGKERELFATISYDDSTYADSVKGSFTISRDNAKNTVYLQMNSLKPEDTAVYYDYWGQGTQVTVSS: low polyreactivity
QVQLVESGGGLVQAGGSLRLSCAASASIFYQNAMGWYRQAPGKERELVAAISSAGSTYYADSVKGRFTISRDNAKNTVYLQMNSVKPEDTAVYYLLRGQGTQVTVSS: low polyreactivity
QVQLVESGGGLVQAGGSLRLSCAASAFIFRFYTMGWYRQATGKETELVAAITSRGDRTYYADSVKRRFTISRENAKNPVYLQMNSLKPEDTAVYYCAKATRGYRSPYGSIGYYYRGQGTQVTVSS: high polyreactivity

Input line: Which polyreactivity (PSR sort gate) value belongs to "QVQHVESGGGLVQAGGSLPLSGAASGLTFTRYAMGWYRQAPGKESELVAAISKNGGSTYYADSVTGRFTISRDNAKYTVYLQMNSLKPEDTAVYYCAARRSTSYPAGYDYWVQGTQVTVSS" ?
Output line: high polyreactivity

Input line: Could you do the same for "QVQLVESGGGLVQAGGSLRLSCAASGRTFGFYAMGWDRQAPGKERELVAVITWSVTSTYYADSVKGRFTISRDNAKNTVYLQMNSLKPEDTAVYYCAAEYVVGASSVRDSLDYGYWGQGTQVTVSS" , please?
Output line: high polyreactivity

* * *

assay-info: yeast display, Sf9 membrane polyspecificity reagent, FACS + sequencing; frameworks hold sequencing errors
measurement-name: polyreactivity (PSR sort gate)

QVQRVESGGGLVQEGGSLRLSCAASGLIFAIYAMGWYRQAPGKDRELVAAMRWSGASTYADSVKGRFTNSRDNAYNTVYLQMISLKREDTAVYYCAADDLLDYDYWGQGTQVTVSS: low polyreactivity
QVQLVESGGGLVQAGGSLRLSCAASGNTFVYNAMGWYRQAPGKERELVAGLTKTGGRTYYADSVKGRVTISRDNAKNTVYLQMNSLKPEETAVYYCAARPWNDGYYVGRFHMDYWGQGTQVTVSS: low polyreactivity
QVQLVESGGGLVQAGGSLRLSCAASGFTFWDYAMGWYRQAPGKERELVAAISSRGTRTYYADSVKGRFTISRDNAKNTVYFQMNSLKPEDTAVYYCATAIPDPDYIHNYWGQGTQVTVSS: high polyreactivity
QVQLVESGGGLVQAGGSLRLSCAASGSIFRGYAMGWYRQAPEKERELVAAMSRRGGSTYYADSVKGRFTISRDNAKNTVYLQMNSLKPEDTAVYYCAADWLSWFHGYGMYYWGQGTQVTVSS: low polyreactivity
QVQLVESGGGLVQAGRTLRLSCAASGRTFVPYAMGWYRPAPGKERELVAAISYSGDSTYYADSVKGRFTISRDNAKNTVYLQMNRLKPEDTAVYYCAARGGYPFYYWGQGTQVTVSS: low polyreactivity

Next up:
Input line: Which polyreactivity (PSR sort gate) value belongs to "QVQLVESGGGLVQAGGSLRLSCAASGRIFSYYAMGWYRQAPGKERELVAAISYSTTSTYYADSVKGRFTISRDNAKNTVYLQMNSLKPEDTAVYYCAAEFQPGSYTPTYDYWGQGTQVTVSS" ?
Output line: low polyreactivity

* * *

assay-info: yeast display, Sf9 membrane polyspecificity reagent, FACS + sequencing; frameworks hold sequencing errors
measurement-name: polyreactivity (PSR sort gate)

QVQLVESGGGLVQAGGSLRLSCAASGRTFWSNAMGWYRQAPGKERELVAAISGGARTNYADSVKGRFTISRDNAKNTVYLQMNSLKPEDTAVYYCAATPRYWQSRYDYWGQGTQVTVSS: high polyreactivity
QVQLVESGGGLVQAGGSLRLSCAASGSTFGVNAMGWYRQAPGKERELVAGISSGTSTYYADSVKGRFTISRDNAKNTVYLQMNSLKPEDTAVYYCATRWSYRYGYWGQGTQVTVSS: high polyreactivity
QVQLVESGGGLVQAGGSLRLSCAASGNIYDPYAMGWYRQAPGKERELVARISSGGRTDYADSVKGRFTISRDNAKNTVYLQMNSLKPEDTAVYYCAADVLQAYYLTLFGYRYYLVDYWGQGTQVTVSS: low polyreactivity
QVQLVESGGGLVQAGGSHRLSGAASGFIFFYYDMGWYRQAPGKERELVAAISWSGSSTYYADSVNGRFTISRDNAKNTVYLQMNSLNTEDTAVYYCAARYAPSQDWDEYYYWGQGTQVTLSS: low polyreactivity

Next up:
Input line: Which polyreactivity (PSR sort gate) value belongs to "QVQLVESVGGLVQAGGSLRLSCAASGSIFGVYVMGWYRQAPGKERELVAAITRGASTNYADSVKGRFTISRDNAKNTVYLQMKSLKPEDTAVYYCAAEWWEEYGYYDDNDYWGQGTQVTVSS" ?
Output line: low polyreactivity

* * *

assay-info: yeast display, Sf9 membrane polyspecificity reagent, FACS + sequencing; frameworks hold sequencing errors
measurement-name: polyreactivity (PSR sort gate)

Look over these answered cases.
QVQLVESGGGLVQAGGSLRLSCAASGIIFGTYAMGWYRQAPGKERELVASITNGGNTNYADSVKGRFTISRDNAKNTVYLQMNSLKPEDTAVYYCAKDVPYWRPVVRYDYWGQGTQVTVSS: low polyreactivity
QVKLVESGGRLVQAGGSLRLSCAASGRNFYNYAMGWYRQAPGKERELVAAISKSGGRTYYADSVKGRFTISRDNAKNTVYLQMNSLKPEDTAVYYCAAEPFIPDQSRYYYWGQGSQVTVSS: high polyreactivity
QFQLVESGGGLVQAGGSLRLSSAASGSIFRSYAMGWYRQAHGKERELVAAISSRSGSTYYADSVKGRFTISRDNAKNTVYLQMNSLKPEETAVYYCAAQHRHSYGYWGQGTQVTVSS: high polyreactivity
QVQLVESGGGLVQAGGSLRLSCAASGIIFSIYAMGWYRQAPGKERELVAAISGRGGRTYYADSVKGRFTISRDNAKNTVYLQMNSLKPVDTAVYYCIAEYLDLYDYWGQGTQVTVSS: low polyreactivity
QVQLVESGGGLVQAGGSLRLSCAPSGSIFRVYAMGWYRQAPGKERELVAAITIGTSTNYADSVKGRFTISRDNAKNTVYLQMNSLKPEDTAVYYCAAEWSYNLDSIASSPTSYDYWGQGTQVTVSS: low polyreactivity

Next up:
Input line: Which polyreactivity (PSR sort gate) value belongs to "QVQLVESGGGLVQAGGSLRLSCAASGRIFPPNAMGWYRQGPGKERELVAGITSSGDTTYYADSVKGRFTISRDHAKKTVNLQMHSLKPEDTAVNYCAKDDVYADDRSALFDYWGQGTQVTVSS" ?
Output line: low polyreactivity

* * *

assay-info: yeast display, Sf9 membrane polyspecificity reagent, FACS + sequencing; frameworks hold sequencing errors
measurement-name: polyreactivity (PSR sort gate)

Look over these answered cases.
QFQLVESGGGLVQAGGSLRLSCAASGRTFASNAMGWYRQAPGKERELVADITWDGGRTYYADSVKGRFTISRDNAKNTVYLQMNSLKPEDTAVYYCAARDTFPRRYGYWGQGTQVTVSS: high polyreactivity
QVQLVESGGGLVQAGGSLRLSCAASGFTFYNYAMGWYRQAPGKERELVAAISYSGGSTYYADSVKGRFTISRDNAKNTVYLQMNSLKPEDTAVYYCAVVWWIQYVPGSYHAGYYWGQGTQVTVSS: high polyreactivity
QVQLVDSGGGLVQAGGSLRLTCAASGSTIYKNTMGWDRQGPGKERELVAAITRGGSTYYADSVKGRVTISRDNAKNTVYLQMNSLKPEDTAVYYCNTLTRHRYGYDYWGQGTQVTVSS: high polyreactivity
QVQLVESGGGLVQAGGSLRLSCAASGYIFYFNAMGWYRQAPGKERELVAVISDRDDSTYYADSVKGRFTISRDNAKNTVYLQMNSLKPEDTAVYYCAADGDTYVDDPYDYWGQGTQVTVSS: low polyreactivity

Next up:
Input line: Which polyreactivity (PSR sort gate) value belongs to "QVQHVESGGGLVQAGGSLRLSCAASGIIFPYNAMGWYRQAPGKERELVAAITGGGSTYYADSVKGRFTISRDNAKNTVYLQMNSLKPEDTAVYYCAADRSGPGYDYWGQGTQVTVSS" ?
Output line: low polyreactivity

* * *

assay-info: yeast display, Sf9 membrane polyspecificity reagent, FACS + sequencing; frameworks hold sequencing errors
measurement-name: polyreactivity (PSR sort gate)

QVQLVESGGGLVQAGGSLRLSCAASGRIFPYYAMGWYRQAPGKERELVAAISRIGGRTYYADSVKGRFTISRDNAKNTVYLQMNSLKPEDTAVYYCAAGYGGTFNCGQGTQVTVSS: high polyreactivity
QVQLVESGGGLVQAGGSLRLSCAASGLTFDYYAMGWYRQAPGKERELVAAITSSGGRTYYADSVKGRFTISRDNPNKTVYLQMNSLKPEDTAVYYCAADPYSVYGGDYWGQGTQVTVSS: low polyreactivity
QVQLVESGGGLVQAGGSLRLSCAASGRTFGYNVMGWYRQAPGKERELVAVINGRGGSTYYADSVKGRFTISRDNAKNTVYLQMNSLKPEDTAVYYCNVVSGGYFEYDYWGQGTQVTVSS: high polyreactivity
QVQLVESGGGLVQAGGSLRLSCAASGLTFYYYAMGWYRQAPGKERELVASINRSSGSTYYADSVKGRFTISRDNAKNTVYLQMNSLKPEDTAVYYCAVKKHWPHPAYTRYYKYYYWGQGTQVTVSS: high polyreactivity
QVQLVESGGGLVQAGGSLRLSCAASGFIFVVYTMGGYRQEPGKVRELVAAITSGGSTYYADSVKGRFTISRDNAKNTVYLQMNSLKPEDTAVYYCNALASRYQAYYYWGQGTQVTVSS: low polyreactivity
QVQLVESGGGLVQAGGSLRLSCAASGSNFRSNAMGWYRQAPGKERELVAAISRRGGSTYYADSVKGRFRISRDIAKNTVYLQMNSLKPEDTAVYYCAAPTIVSGHDSWGQGTQVTVSS: high polyreactivity

Input line: Which polyreactivity (PSR sort gate) value belongs to "QVQLVESGGGLVQAGGSLRLSCAASGRIFAYYTMGWYRQAPGKERELVAAISGSSGRTYYADSVKGRFTISRDNAKNTVYLQMNSLKPEDTAVYYCAARGFSFWRYYYWGQGTQVTVSS" ?
Output line: high polyreactivity

Input line: Could you do the same for "QVQLVESGGGLVQAGGSLRLSCAASGSIIGDNAMGWSRQAPGKERELVADITNGGSTNYADSVKGRFTISRDNAKNTVYLQMNSLKPEDTAVYYCNKDIVWYGNYGYWGQGTQVTVSS" , please?
Output line: low polyreactivity

Input line: Could you do the same for "QVQLVESGGGLVQAGGSLRLSCAASGSTFYDYVMGWYRQAPGKERELVAAITGSGGRTYYADSVKGRFTISRDNAKNTVYLQMNSLKPEDTAVYYCAVRVHYNRVYGRYSPRYDYWGQGTQVTVSS" , please?
Output line: high polyreactivity

Input line: Could you do the same for "QVQLVESGGGLVQAGGSLRLSCAASGRTFVPNTMGWYRQAPGKERELVAAIRWSVGSTYYADSVKGRFTISRDNAKNTVYLQMNSLKPEDTAVYYCAAYYSRSYLRYGMDYWGQGTQVTVSS" , please?
Output line: high polyreactivity

Input line: Could you do the same for "QVQLVESGGGLVKAGGSLRLSCAASGSTFRPYAMGWYRPAPGKERELVAAITSRGGSTYYADSVKGRFTISRDNAKNTVSLQMNSLKPEDTAVYYCAASYEVVASSYRYYYWGQGTQVTVSS" , please?
Output line: high polyreactivity
